B1: HDV Ribozyme (parent)
chain: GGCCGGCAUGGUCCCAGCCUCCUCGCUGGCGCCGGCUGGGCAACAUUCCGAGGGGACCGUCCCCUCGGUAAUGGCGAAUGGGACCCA

- Variants of: B1
- assay details: self-cleavage, relative activity (ratio to wild type); higher = more cleavage; co-transcriptional
Where self-cleavage equals or exceeds 0.2, the correct label is 1; where it does not, the label is -1.

// query Please check the record G73C U79A and state if its self-cleavage is at or above 0.2.
// result 1

// query # repeat for U23C C86U
// result 1

// query Then this variant: C21A A42U
// result 1

// query Also C18U G67A , if possible.
// result 1

// query Entry to check: U23G G34A
// result -1

// query Now the variant C14U G76C
// result 1

// query G50U C86A , same question.
// result 1

// query Follow-up item: C32U C57U
// result 1

// query What would you report for C15U G35A ?
// result 1

// query Try this variant too: G2U C41A
// result -1

// query What do you get for G68U G81C ?
// result 1

// query // repeat for C7U G25A and report
// result 1

// query Moving on to the next variant: C33U G68U
// result 1

// query What do you have for A70G U79G ?
// result 1

// query Cool, now A8G G35C
// result -1

// query Same for A8C A56C
// result 1

// query Another variant to look at: C7A U27C
// result 1

// query Proceed to C15A G80C
// result 1

// query Record: U72G C85A
// result 1

// query What about this variant? G1C C48U
// result 1

// query Another variant: U9A G82C
// result 1

// query And then C18U U72G , what is it?
// result 1

// query Next variant up: G25A C33A
// result -1

// query Similarly, C57A A71U ?
// result 1

// query Queued: U47G C64U
// result 1

// query Also need A16G C61A , thanks.
// result 1

// query Same read-out for G17A C32G ?
// result -1

// query Entry to check: C26U C41G
// result 1

// query Would you mind doing U46A G53C as well?
// result 1

// query Can you handle G2C G40U next?
// result -1

// query Another variant to look at: G35C U79G
// result 1

// query Please answer likewise for C19U C85A
// result -1

// query Another variant: U46A U69A
// result 1

// query Let us now turn to G35C A71U
// result -1

// query Follow-up entry: U9C A51U
// result 1

// query Similarly, C15G G59U ?
// result 1

// query Moving on to C30A G39U
// result -1

// query How about C36G C64U ?
// result -1

// query What do we get for G34A C57U ?
// result 1

// query Check G2C C26U too.
// result -1

// query Same lookup for A8G C32G , please.
// result -1

// query Quick one: G2C G52C
// result -1

// query Do the same for C30U C58A please
// result 1

// query Further, for C36A G39C ?
// result -1

// query Could you do the same for U12A U79A , please?
// result -1
